- target-desc: Nucleotide-binding oligomerization domain-containing protein 2 (Homo sapiens, UniProt Q9HC29)
- Sequence (Q9HC29 whole entry, the tested form may be a part): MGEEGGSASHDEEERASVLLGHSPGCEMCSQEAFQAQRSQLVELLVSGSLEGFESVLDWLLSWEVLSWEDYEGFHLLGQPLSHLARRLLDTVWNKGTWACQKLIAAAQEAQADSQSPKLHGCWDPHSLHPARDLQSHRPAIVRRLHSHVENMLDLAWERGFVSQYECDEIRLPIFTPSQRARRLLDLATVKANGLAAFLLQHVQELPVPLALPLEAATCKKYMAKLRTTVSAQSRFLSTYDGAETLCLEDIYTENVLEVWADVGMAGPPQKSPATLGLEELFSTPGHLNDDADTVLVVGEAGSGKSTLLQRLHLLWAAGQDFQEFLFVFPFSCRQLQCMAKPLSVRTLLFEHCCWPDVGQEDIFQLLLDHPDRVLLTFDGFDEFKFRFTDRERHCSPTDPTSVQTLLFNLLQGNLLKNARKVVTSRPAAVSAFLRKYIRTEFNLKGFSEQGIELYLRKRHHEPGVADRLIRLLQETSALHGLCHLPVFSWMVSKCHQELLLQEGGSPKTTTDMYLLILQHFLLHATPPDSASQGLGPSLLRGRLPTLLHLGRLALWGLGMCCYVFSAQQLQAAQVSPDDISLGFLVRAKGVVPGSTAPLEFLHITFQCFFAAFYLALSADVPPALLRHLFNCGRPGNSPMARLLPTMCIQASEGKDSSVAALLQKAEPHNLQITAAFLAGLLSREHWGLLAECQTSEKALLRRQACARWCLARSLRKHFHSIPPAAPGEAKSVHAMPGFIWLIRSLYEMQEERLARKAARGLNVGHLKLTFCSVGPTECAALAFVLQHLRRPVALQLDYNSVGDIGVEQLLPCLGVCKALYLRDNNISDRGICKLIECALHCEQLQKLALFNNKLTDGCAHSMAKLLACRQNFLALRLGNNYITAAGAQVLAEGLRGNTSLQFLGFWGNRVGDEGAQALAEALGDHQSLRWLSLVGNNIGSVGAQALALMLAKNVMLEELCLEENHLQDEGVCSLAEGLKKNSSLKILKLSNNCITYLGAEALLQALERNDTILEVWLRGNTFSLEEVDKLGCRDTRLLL
- experimental-protocol: inhibition of NOD2-driven NF-kB reporter – cell-based, luminescence, uHTS, HEK293 (AID 1566)
- Format: functional
Active and inactive are the calls of the source.
Choose the fitting class; nothing outside active, inactive is accepted.

1) COc1cccc(C(=O)Nc2sc3c(c2C(=O)O)CCCC3)c1; inactive
2) O=C(Nc1sc2c(c1C(=O)O)CCCC2)c1ccccc1Cl; inactive
3) Cc1ccc(-c2nc(NC(=O)c3nn(C)cc3[N+](=O)[O-])sc2C)cc1; active
4) CC(=O)NC(c1ccc(Cl)cc1Cl)c1ccc2cccnc2c1O (stereo unspecified); inactive
5) CN(C1=C(NC(=O)c2ccc(Cl)cc2)C(=O)c2ccccc2C1=O)c1ccccc1; active

Now turn to the next compound.
What did the test return for CCc1nnc(NC(=O)c2ccc(Cl)c(S(=O)(=O)N3CCc4ccccc4C3)c2)s1 ?
active

* * *

- target-desc: DNA dC->dU-editing enzyme APOBEC-3G (Homo sapiens, UniProt Q9HC16)
- Sequence (Q9HC16 whole entry): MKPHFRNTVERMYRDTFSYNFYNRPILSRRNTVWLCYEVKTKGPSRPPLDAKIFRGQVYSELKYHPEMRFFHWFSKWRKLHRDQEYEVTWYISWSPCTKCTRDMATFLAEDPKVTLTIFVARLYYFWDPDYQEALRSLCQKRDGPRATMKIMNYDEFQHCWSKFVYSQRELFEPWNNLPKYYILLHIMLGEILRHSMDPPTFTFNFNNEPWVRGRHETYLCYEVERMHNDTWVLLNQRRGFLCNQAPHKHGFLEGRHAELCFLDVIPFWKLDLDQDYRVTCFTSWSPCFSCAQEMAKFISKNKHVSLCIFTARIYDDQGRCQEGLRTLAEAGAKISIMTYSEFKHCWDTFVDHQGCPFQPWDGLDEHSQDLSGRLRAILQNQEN
- experimental-protocol: Dose Response confirmation of small molecule APOBEC3G DNA Deaminase Inhibitors via a fluorescence-based single-stranded DNA deaminase assay. [Related pubchem assays (depositor defined):AID493012, AID493028]
- Type: functional
Calls of active or inactive are those of the source.
quantity: IC50

1) CC(Sc1ccc2nnc(-c3ccc(F)cc3)n2n1)C(=O)O (centres undefined); 21 µM (active)

Batch: IC50 for all items listed.
1. CC(=O)c1ccc(NC(=O)c2ccc(NC(=O)c3ccco3)cc2)cc1
2. COc1ccc(OCc2nnc(S)n2Cc2ccco2)cc1
3. Fc1cccc(Cl)c1/C=N/n1c(S)nnc1-c1cccnc1

25.3 µM (active)
3.88 µM (active)
2.73 µM (active)

* * *

- target-desc: Cytochrome P450 1A2 (Homo sapiens, UniProt P05177);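 also: PubChem cytochrome P450 panel assay, CYP1A2 panel member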
- Sequence (P05177 whole entry): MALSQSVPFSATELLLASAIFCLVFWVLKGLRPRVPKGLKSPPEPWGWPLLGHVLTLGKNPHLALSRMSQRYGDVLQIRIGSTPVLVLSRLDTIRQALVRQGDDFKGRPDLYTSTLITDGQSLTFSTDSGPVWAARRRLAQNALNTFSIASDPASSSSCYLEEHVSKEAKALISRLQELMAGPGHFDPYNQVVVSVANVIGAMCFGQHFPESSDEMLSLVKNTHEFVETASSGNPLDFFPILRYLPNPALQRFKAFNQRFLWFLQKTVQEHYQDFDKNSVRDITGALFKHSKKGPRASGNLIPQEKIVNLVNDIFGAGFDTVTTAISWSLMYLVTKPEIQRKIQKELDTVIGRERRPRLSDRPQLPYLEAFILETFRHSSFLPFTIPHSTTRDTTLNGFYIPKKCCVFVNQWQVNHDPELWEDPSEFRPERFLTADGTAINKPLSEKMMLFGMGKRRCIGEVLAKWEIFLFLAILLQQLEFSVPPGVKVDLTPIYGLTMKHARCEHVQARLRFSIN
What AC50 was measured for each of the following?

In the examples that follow, each entry is paired with its recorded AC50.
1) O=c1c(-c2ccccc2)c(O)c2cccc3c2n1CCC3; 11.2 µM (inconclusive)
2) CN(C)c1ncc2nc(-c3ccccc3)c(=O)n(-c3ccccc3)c2n1; 0.398 µM (inconclusive)

Batch: AC50 for all items listed.
1. C=C(CC1([C@@H](NP(=O)(c2ccccc2)c2ccccc2)[C@H]2C[C@@H]2CCCC)CC1)c1cccc(OC)c1
2. CCOC(=O)c1cnn(-c2ccccc2)c1-n1cccc1C(=O)C(=O)Nc1ccccc1C(F)(F)F
3. Cc1ccc(C(=O)NC(=S)Nc2ccc(S(=O)(=O)N3CCN(C)CC3)cc2)cc1

["12.6 µM (inconclusive)", "14.1 µM (inconclusive)", "12.6 µM (inconclusive)"]

* * *

- target-desc: Short transient receptor potential channel 4 (Mus musculus)
- Sequence (Q9QUQ5 whole entry): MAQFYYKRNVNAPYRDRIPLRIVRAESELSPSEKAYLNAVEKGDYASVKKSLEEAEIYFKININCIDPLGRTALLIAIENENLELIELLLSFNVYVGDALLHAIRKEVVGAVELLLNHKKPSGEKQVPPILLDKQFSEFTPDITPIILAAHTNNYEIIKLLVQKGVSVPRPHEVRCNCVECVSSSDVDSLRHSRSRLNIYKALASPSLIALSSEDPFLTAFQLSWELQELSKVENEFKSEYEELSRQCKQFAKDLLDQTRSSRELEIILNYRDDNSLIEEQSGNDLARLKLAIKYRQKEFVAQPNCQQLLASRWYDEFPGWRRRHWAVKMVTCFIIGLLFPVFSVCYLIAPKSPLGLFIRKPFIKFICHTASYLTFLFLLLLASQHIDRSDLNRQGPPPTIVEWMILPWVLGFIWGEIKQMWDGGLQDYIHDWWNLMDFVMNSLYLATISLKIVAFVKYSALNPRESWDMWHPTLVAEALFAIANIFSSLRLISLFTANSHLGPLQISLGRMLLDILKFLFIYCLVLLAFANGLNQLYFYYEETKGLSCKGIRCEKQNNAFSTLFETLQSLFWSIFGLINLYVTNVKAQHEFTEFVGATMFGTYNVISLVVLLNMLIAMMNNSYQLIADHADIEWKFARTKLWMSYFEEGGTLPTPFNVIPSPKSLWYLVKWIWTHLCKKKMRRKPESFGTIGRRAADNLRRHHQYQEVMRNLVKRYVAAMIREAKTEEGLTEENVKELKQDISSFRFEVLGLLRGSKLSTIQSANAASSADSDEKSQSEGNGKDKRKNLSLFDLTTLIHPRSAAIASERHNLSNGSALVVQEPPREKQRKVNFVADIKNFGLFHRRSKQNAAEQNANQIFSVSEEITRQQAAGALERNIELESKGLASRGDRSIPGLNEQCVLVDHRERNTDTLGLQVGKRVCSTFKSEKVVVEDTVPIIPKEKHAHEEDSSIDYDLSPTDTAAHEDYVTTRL
- experimental-protocol: block of DAMGO-driven TRPC4 calcium entry – cell-based, HEK293 TRPC4/mu-opioid, Fluo-4 calcium, dose response (AID 434942);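 also: potency of inhibitors blocking the TRPC4 calcium response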
- Format: functional
Activity calls are given as the source filed them.
What EC50 was measured for each of the following?

In the examples that follow, each entry is paired with its recorded EC50.
1. Fc1ccc(CN2CCC(Cc3ccccc3)CC2)cc1F; 4.73 µM (active)
2. O=C(c1ccco1)N1CCN(C/C=C/c2ccccc2)CC1; 0.596 µM (active)
3. OCC1(CCc2ccccc2)CCN(Cc2cc(Cl)ccc2O)CC1; 9.44 µM (active)

Batch: EC50 for all items listed.
1. Cc1cc(C)nc(N=C(N)NC2CCCCC2)n1
2. O=C(c1ccc(Cl)c(Cl)c1)N(Cc1ccco1)c1ccc(O)cc1

1. 4.22 µM (active)
2. 8.41 µM (active)

* * *

- target-desc: UniProt:Q9QUQ5
- experimental-protocol: calcium entry via TRPC4 opening agents – cell-based, HEK293 TRPC4/mu-opioid, Fluo-4 calcium, dose response (AID 434937)
- Type: functional
Calls of active or inactive are those of the source.
quantity: EC50

1. Cc1onc(-c2ccccc2)c1C(=O)NNC(=S)NC(=O)c1ccc(Br)cc1; 1880 nM (active)
2. COc1ccc(-n2cc(CNCCc3nc(C)c[nH]3)c(-c3ccccc3Cl)n2)cc1; 5960 nM (active)
3. CN1CCN(Cc2nc3c(c(=O)[nH]c(=O)n3C)n2Cc2c(F)cccc2Cl)CC1; 1680 nM (active)

Batch: EC50 for all items listed.
1. CN(C)C(CNC(=O)c1ccc2ccccc2n1)c1ccccc1 (stereo not given)
2. NC(=O)C1CCCN(CC(O)COCc2ccc(Cl)cc2)C1 (stereo not given)

1. 267 nM (active)
2. 211 nM (active)

* * *

- target-desc: Carboxy-terminal domain RNA polymerase II polypeptide A small phosphatase 1 (Homo sapiens, UniProt Q9GZU7)
- Sequence (Q9GZU7 whole entry): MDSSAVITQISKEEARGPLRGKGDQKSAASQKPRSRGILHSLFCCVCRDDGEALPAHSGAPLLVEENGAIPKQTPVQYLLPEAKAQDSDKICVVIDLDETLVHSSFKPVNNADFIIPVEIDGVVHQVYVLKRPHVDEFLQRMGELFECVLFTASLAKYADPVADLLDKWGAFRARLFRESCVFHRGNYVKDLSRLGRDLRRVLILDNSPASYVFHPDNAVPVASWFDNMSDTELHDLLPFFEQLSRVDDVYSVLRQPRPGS
- experimental-protocol: CTDSP1 inhibitors, concentration-response, biochemical, absorbance readout, ultra-high-throughput screen actives (AID 540297)
- Format: functional
Activity calls are given as the source filed them.
quantity: IC50

In the examples that follow, each entry is paired with its recorded IC50.
1. CCOc1ccc(/C=C2\SC(=S)N(CCC(=O)Nc3ccccc3C(=O)O)C2=O)cc1; 4.86 µM (active)
2. CC(/C=C/c1ccco1)=N\NC(=O)c1cccnc1; 21.3 µM (active)

Batch: IC50 for all items listed.
1. N#Cc1c(/N=C/c2ccc(-c3ccccc3C(=O)O)o2)sc2c1CCCC2
2. Cc1ccc2[nH]c(/C(C#N)=C/c3ccc(-c4ccccc4C(=O)O)o3)nc2c1
3. COc1ccc(Cl)cc1C=CC=NNC(=O)c1ccncc1
4. O=C(CCN1C(=O)/C(=C/c2ccc3c(c2)OCO3)SC1=S)Nc1cccc(C(=O)O)c1

1: 9.17 µM (active); 2: 17 µM (active); 3: 18.9 µM (active); 4: 6.78 µM (active)

Batch: IC50 for all items listed.
1. COC(=O)c1ccc(C)c(NC(=O)CSc2sc3c(O)cc(=O)[nH]c3c2C#N)c1
2. O=C(O)c1ccc(CNc2ccccc2C(=O)O)cc1
3. O=c1c2ccccc2sn1-c1cc(S(=O)(=O)N2CCOCC2)ccc1N1CCCC1

1: 3.04 µM (active); 2: 25.3 µM (active); 3: 11 µM (active)

Give a short answer stating reported IC50 for O=C(CSc1nnc(COc2ccccc2Cl)o1)NC(=O)NCc1ccco1 .
5.93 µM (active)

* * *

System: Cytochrome P450 2C9 (Homo sapiens, UniProt P11712) | Read-out: AC50
Sequence (P11712 whole entry): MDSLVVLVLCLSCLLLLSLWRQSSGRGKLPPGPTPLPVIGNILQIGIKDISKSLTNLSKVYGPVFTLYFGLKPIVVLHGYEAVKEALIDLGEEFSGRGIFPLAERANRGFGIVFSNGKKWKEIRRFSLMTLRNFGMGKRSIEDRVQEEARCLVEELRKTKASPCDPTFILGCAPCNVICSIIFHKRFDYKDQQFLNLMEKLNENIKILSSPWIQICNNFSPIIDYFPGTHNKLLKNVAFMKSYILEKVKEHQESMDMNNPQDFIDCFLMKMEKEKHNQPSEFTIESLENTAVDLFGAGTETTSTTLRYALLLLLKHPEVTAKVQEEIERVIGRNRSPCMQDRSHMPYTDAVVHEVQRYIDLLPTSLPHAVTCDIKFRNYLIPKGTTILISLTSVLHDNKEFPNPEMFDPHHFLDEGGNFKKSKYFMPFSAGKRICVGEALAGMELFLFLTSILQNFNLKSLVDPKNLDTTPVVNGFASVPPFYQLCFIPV

In the examples that follow, each entry is paired with its recorded AC50.
1. CC(=O)Nc1ccc2c(c1)/C(=C/c1ccc([N+](C)(C)C)cc1)c1ccccc1-2; 3.16 µM (inconclusive)
2. Cc1cnn(-c2ccc3nnc(-c4ccc(Cl)cc4)n3n2)c1; 6.31 µM (inconclusive)
3. CC(C)C(=O)Nc1ccc([N+](=O)[O-])c(C(F)(F)F)c1 [FLUTAMIDE]; 12.6 µM (inconclusive)
4. CC(C)OCCCn1c(=S)[nH]c2ncccc2c1=O; 1.78 µM (inconclusive)

Give a short answer stating reported AC50 for C=C(CC1([C@@H](NP(=O)(c2ccccc2)c2ccccc2)[C@H]2C[C@@H]2CCCC)CC1)c1cccc(OC)c1 .
39.8 µM (inconclusive)

* * *

- experimental-protocol: Luminescence Cell-Based Dose Confirmation HTS to Identify Inhibitors of Platelet Dense Granule Release. [Related pubchem assays: 1663 (Primary HTS), 1678 (Summary of Project)]
- Assay type: functional
Calls of active or inactive are those of the source.
quantity: EC50

In the examples that follow, each entry is paired with its recorded EC50.
1. Cc1ccccc1Nc1nc(N)c2ccccc2n1; 3.1 µM (active)
2. O=C1c2ccccc2C(Nc2ccc3c(c2)OCO3)N1Cc1ccco1 (centres undefined); > 112 µM (not active)
3. O=C(Nc1cccc(N2CCCC2)c1)c1cccs1; > 112 µM (not active)

Give a short answer stating reported EC50 for C=C(C)CNC(=S)N/N=C(\C)c1ccc(OC)cc1 .
30.5 µM (active)

* * *

- experimental-protocol: loss of viability in HepG2 cells – cell-based, CellTiter-Glo, cherry-picked, cytotoxicity control for Shn3 inhibitor project, dose response (AID 624134)
- Assay type: functional
Calls of active or inactive are those of the source.
quantity: AC50

Batch: AC50 for all items listed.
1. CC(=O)NC(c1ccc(Cl)cc1Cl)c1ccc2cccnc2c1O (centres undefined)
2. Cc1ccc(-c2nc(NC(=O)c3nn(C)cc3[N+](=O)[O-])sc2C)cc1
3. CCc1c(C)nc2ncnn2c1NCCc1ccc(Cl)cc1
4. Cc1ccc(F)cc1CNC(=O)c1cc(COc2ccc3ncccc3c2)on1

["0.764 µM (active)", "26.8 µM (active)", "60.2 µM (active)", "6.33 µM (active)"]
